# target_or_system: Genome polyprotein (Dengue virus type 2 (strain 16681-PDK53)) (UniProt P29991)
# experiment_summary: flavivirus cap methylation enzyme inhibition – biochemical, confirmation dose response, primary screen (AID 588689)
# test_parameters: Dengue-2 NS5 methyltransferase capping enzyme assay, at 25 µM, stronger effect = higher value
Screen size: about 340,000 compounds; about 1,000 (0.29%) were called active. A selection follows. Entries with a potency or affinity are not part of this list.
measured_quantity: inhibition (%)
Numbers only; they are read as %.

Below: 5 molecules and their reported inhibition.
O=C(CNCc1ccccc1Cl)Nc1ccc(C(=O)N2CCCCC2)cc1    -14.1
CCCCc1c(C(=O)O)cc(OC)cc1C(=O)O    5.73
O=[N+]([O-])c1cccc(/C=N/N=C\c2ccccc2)c1    -0.78
O=C(CN1C(=O)/C(=C\c2cccc(Br)c2)Oc2ccccc21)NCCCN1CCOCC1    0.88
Cc1ccc(-c2nnn(CC(=O)N(c3ccccc3F)C(C(=O)NC3CCCC3)c3ccncc3)n2)o1 (stereo not given)    5.7

Q: Given the molecule COc1ccc(OC)c(C(=O)CCCCC(=O)c2cc(OC)ccc2OC)c1 , what is its reported inhibition?
Ans: 2.88

Q: Cool, now COc1ccc2c(c1)[nH]c1c(=O)n(CCN3CCOCC3)cnc12
Ans: -4.77

====

# target_or_system: Genome polyprotein (Dengue virus type 2 (strain 16681-PDK53))
# experiment_summary: flavivirus cap methylation enzyme inhibition – biochemical, confirmation dose response, primary screen (AID 588689)
# test_parameters: Dengue-2 NS5 methyltransferase capping enzyme assay, at 25 µM, stronger effect = higher value
About 1,000 (0.29%) of roughly 340,000 compounds were called active. Not all results are given here. Measured potencies and affinities stand elsewhere.
measured_quantity: inhibition (%)
Numbers only; they are read as %.

Below: 4 compounds and their reported inhibition.
O=C(Nc1ccccc1C(=O)Nc1ccccc1C(=O)O)c1ccccc1    2.59
CC(=O)Nc1cccc(C(=O)Nc2ccccc2C(=O)O)c1    3.9
COc1cc2c(cc1OC)CC(C(=O)NCc1ccccc1)NC2 (stereo unspecified)    -4.57
O=C(Nc1ccccc1C(=O)O)c1cccc(S(=O)(=O)Nc2ccc(Br)cc2)c1    22.4

Q: Given the compound O=C(Nc1ccccc1C(=O)O)c1ccccc1 , what is its reported inhibition?
Ans: -0.69

Q: Cool, now Cc1ccc(C(=O)Nc2ccccc2C(=O)O)cc1S(=O)(=O)Nc1ccccc1
Ans: 3.97

====

# target_or_system: Genome polyprotein (Dengue virus type 2 (strain 16681-PDK53)) (UniProt P29991)
# experiment_summary: flavivirus cap methylation enzyme inhibition – biochemical, confirmation dose response, primary screen (AID 588689)
# test_parameters: Dengue-2 NS5 methyltransferase capping enzyme assay, at 25 µM, stronger effect = higher value
The whole screen tested about 340,000 compounds, of which about 1,000 (0.29%) were called active. These entries were drawn from the full list. Results with a measured potency or affinity are listed apart.
Each entry below carries its reported inhibition.
Numbers only; they are read as %.

Below: 2 compounds and their reported inhibition.
CCC(C)/C=C/C1=CC2=C(Cl)C(=O)C3(C)OC(=O)C(C(=O)C(C)C(C)O)C3C2=CO1 (configuration not stated)    4.35
CCc1cccc(C)c1NC(=O)CSc1nc2ccccc2n1CC(=O)N(C)C    -2.07

Q: Given the compound Cc1ccc(Cn2nnc(C(=O)Nc3cccc(C)c3C)c2N)cc1 , what is its reported inhibition?
Ans: -0.68

Q: Cool, now COc1ccc(/C=N/NC(=O)c2ccc(O)cc2O)cc1CSc1ccccn1
Ans: 2.91

Q: Cool, now O=C1NC(=S)NC1(c1ccccc1)c1ccccc1
Ans: -4.65

Q: Cool, now O=C(Cc1ccc(Cl)cc1)N1CCC2(CC1)NCCc1[nH]cnc12
Ans: -10.7

Q: Cool, now Cn1c(C(C#N)C(=O)c2sc3ccccc3c2Cl)nc2ccccc21 (configuration not stated)
Ans: -3.45

Ref: PubChem BioAssay AID588689
